Provide the reported normalized growth of each item.
- ASSAY: chemical genetic growth profiling, strain panel (AID 1159580);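 also: tested at 20 µM; growth read once vehicle control cultures reached saturation at 30 °C; 1 = growth at the plate median or of vehicle wells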
- CONDITION: S. cerevisiae deletion strains, growth OD, locus YNL183C, strain NPR1, stronger effect = lower value
In all, about 5,500 compounds went through this assay and about 2,000 (36%) were called active. About 18% were inconclusive and are not listed. Some of the results follow.

Reference set, count: 5
[
  {
    "MOLECULE": "CC(=O)OCC(=O)[C@@]1(O)CCC2C3CCC4=CC(=O)CC[C@]4(C)[C@@]3(F)[C@@H](O)C[C@@]21C (stereo not given in full)",
    "normalized growth": "0.957 (inactive)"
  },
  {
    "MOLECULE": "CN(C)c1nc(N(C)C)nc(N(C)C)n1",
    "normalized growth": "0.92 (inactive)"
  },
  {
    "MOLECULE": "N#Cc1ccc2c(c1)N(CCCN1CCC(O)CC1)c1ccccc1S2",
    "normalized growth": "0.983 (inactive)"
  },
  {
    "MOLECULE": "Cc1c(N(C)CS(=O)(=O)O)c(=O)n(-c2ccccc2)n1C",
    "normalized growth": "0.924 (inactive)"
  },
  {
    "MOLECULE": "CC(=O)c1ccc2c(c1)N(CCCN(C)C)c1ccccc1S2",
    "normalized growth": "0.947 (inactive)"
  }
]

Hello, I would appreciate it if you could give normalized growth for each entry below.
1. COC(=O)C1=CO[C@@H](O[C@@H]2O[C@H](CO)[C@@H](O)[C@H](O)[C@H]2O)[C@@H]2[C@@H](C)[C@@H](O)C[C@H]12
2. O=c1n(CCCN2CCN(c3cccc(Cl)c3)CC2)nc2ccccn12
3. COc1c2c(cc3occ(-c4ccc5c(c4)OCO5)c(=O)c13)OC(C)(C)C=C2
4. CCNc1nc(Cl)nc(NC(C)C)n1

output:
1 (inactive)
0.943 (inactive)
0.933 (inactive)
0.97 (inactive)

input: Which normalized growth is listed for CC(C)=CCc1c(O)cc2occ(-c3ccc4c(c3)OCO4)c(=O)c2c1O ?
output: 0.839 (inactive)

---

- ASSAY: chemical genetic growth profiling, strain panel (AID 1159580)
- CONDITION: S. cerevisiae deletion strains, growth OD, locus YJL095W, strain BCK1 (second series)
About 2,000 (36%) of roughly 5,500 compounds were called active. Inconclusive results (about 18%) are left out. Cut-off read from the data, not from the text of the source: active = normalized growth mostly below about 0.91 (no sharp cut-off); inconclusive = no clear call, values can overlap the other calls; inactive = mostly above about 0.92. This is one part of the list.
Would you mind answering with one of these outcomes? active, inactive

Here are 3 compounds together with their reported answers.
[
  {
    "COMPOUND": "COP(=S)(OC)SCn1nnc2ccccc2c1=O",
    "CLASS": "inactive"
  },
  {
    "COMPOUND": "Cc1cccc(N(C)C(=S)Oc2ccc3ccccc3c2)c1",
    "CLASS": "inactive"
  },
  {
    "COMPOUND": "CC(=O)OC1CCC23C(=O)OC45CCC(C6=CC(=O)OC6)C4(C)CCC2C5CCC3(O)C1 (stereo unspecified)",
    "CLASS": "inactive"
  }
]

input: What call does the record list for O=C1c2ccc(O)c(O)c2C(=O)c2c(O)ccc(O)c21 ?
output: active

input: What call does the record list for Cc1cc(O)c2c(c1O)C(=O)c1c(O)cc(C)c(O)c1C2=O ?
output: inactive

input: What call does the record list for Fc1ccc(C(c2ccc(F)cc2)N2CCN(C/C=C/c3ccccc3)CC2)cc1 ?
output: active

input: What call does the record list for COc1ccc2c(=O)c(CC(=O)O)coc2c1 ?
output: inactive

input: What call does the record list for C[C@]12CCC3C(CC[C@H]4CC(=O)CC[C@]34C)C1CCC2=O (stereo partly specified) ?
output: active

input: What call does the record list for O=C1c2ccccc2C(=O)c2c1ccc(O)c2O ?
output: active

input: What call does the record list for Cc1ncc([N+](=O)[O-])n1CCO ?
output: inactive

input: What call does the record list for CNC(=O)CSP(=S)(OC)OC ?
output: inactive

---

- ASSAY: chemical genetic growth profiling, strain panel (AID 1159580)
- CONDITION: S. cerevisiae deletion strains, growth OD, locus YFR028C, strain CDC14, stronger effect = lower value
About 2,000 (36%) of roughly 5,500 compounds were called active. Another 18% or so got no clear call; they are omitted. The list shows a part of the results.
Provide the reported normalized growth of each item.
One number for each entry.

Hello, I would appreciate it if you could give normalized growth for each entry below.
1. CC(Oc1ccc(Cl)cc1Cl)C(=O)NNC(=S)Nc1ccccc1 (stereo unspecified)
2. Cc1nn(Cc2cccc(C(=O)O/N=C(/N)c3ccc(Cl)cc3)c2)c(C)c1Br
3. N/C(=N/OC(=O)c1ccccc1Cl)c1cccc(CS(=O)(=O)c2ccc(Cl)cc2)c1
4. CCCCc1ccc(N=CNO)c(C)c1
5. O=C(OCc1ccc(Oc2ccc(Cl)cc2Cl)c([N+](=O)[O-])c1)c1ccc([N+](=O)[O-])o1
6. N#C/C(=C\C=C\c1ccccc1)c1nc2ccccc2[nH]1

output:
1. 0.974
2. 0.962
3. 0.99
4. 0.967
5. 0.969
6. 0.956

---

- ASSAY: chemical genetic growth profiling, strain panel (AID 1159580);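 also: tested at 20 µM; growth read once vehicle control cultures reached saturation at 30 °C; 1 = growth at the plate median or of vehicle wells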
- CONDITION: S. cerevisiae deletion strains, growth OD, locus YJL187C, strain SWE1 (second series), stronger effect = lower value
Among all 5,500 compounds or so, about 2,000 (36%) were called active. Another 18% or so got no clear call; they are omitted. The list shows a part of the results.
Just a reminder that ties go to FALSE: only normalized growth strictly below 1 counts as TRUE.

Here are 4 compounds together with their reported answers.
[
  {
    "SMI": "Cc1cc(O)c2c(c1O)C(=O)c1c(O)cc(C)c(O)c1C2=O",
    "CLASS": "TRUE"
  },
  {
    "SMI": "CC1(C)C=Cc2c(cc3occ(-c4ccc5c(c4)OCO5)c(=O)c3c2O)O1",
    "CLASS": "TRUE"
  },
  {
    "SMI": "COc1cc2c(cc1-c1coc3c4c(c(OC)cc3c1=O)OC(C)(C)C=C4)OCO2",
    "CLASS": "TRUE"
  },
  {
    "SMI": "Nc1ncnc2nc[nH]c12",
    "CLASS": "TRUE"
  }
]

Next item in the queue.
input: Does COc1ccc2c(=O)c(-c3cc4c(cc3OC)OCO4)coc2c1 have normalized growth strictly under 1?
output: FALSE

---

- ASSAY: chemical genetic growth profiling, strain panel (AID 1159580);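 also: tested at 20 µM; growth read once vehicle control cultures reached saturation at 30 °C; 1 = growth at the plate median or of vehicle wells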
- CONDITION: S. cerevisiae deletion strains, growth OD, locus YAR019C, strain CDC15
Hit rate of the full screen: of about 5,500 compounds, about 2,000 (36%) were called active. Another 18% or so got no clear call; they are omitted. No stated cut-off is given here; in the data, active means normalized growth mostly below about 0.91 (no sharp cut-off); inconclusive means no clear call, values can overlap the other calls; inactive means mostly above about 0.92. The list shows a part of the results.
Would you mind answering with one of these outcomes? 1 (yes) for active, 0 (no) for inactive

Here are 3 compounds together with their reported answers.
[
  {
    "COMPOUND": "C(=NC(N=Cc1ccccc1)c1ccccc1)c1ccccc1 (stereo unspecified)",
    "CLASS": "0 (no)"
  },
  {
    "COMPOUND": "Cc1c(Cl)cccc1N=C1SCC(=O)N1Cc1ccco1",
    "CLASS": "0 (no)"
  },
  {
    "COMPOUND": "COc1ccc(/C(C#N)=C2C=C/C(=N/O)C(Cl)=C\\2)cc1",
    "CLASS": "0 (no)"
  }
]

input: What call does the record list for COc1cccc(C(=O)C(C#N)=C(SC)SC)c1 ?
output: 1 (yes)

input: What call does the record list for O=C1CSC(=Nc2cc(Cl)cc(Cl)c2)N1Cc1cccnc1 ?
output: 0 (no)

input: What call does the record list for N#C/C(=C\c1ccc(C(F)(F)F)cc1)c1ccc(O)cc1 ?
output: 0 (no)

---

- ASSAY: chemical genetic growth profiling, strain panel (AID 1159580);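 also: tested at 20 µM; growth read once vehicle control cultures reached saturation at 30 °C; 1 = growth at the plate median or of vehicle wells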
- CONDITION: S. cerevisiae deletion strains, growth OD, locus YOR184W, strain ser1, stronger effect = lower value
The whole screen tested about 5,500 compounds, of which about 2,000 (36%) were called active. Not shown: some 18% with an inconclusive outcome. The list shows a part of the results.
Just a reminder that ties go to False: only normalized growth strictly below 1 counts as True.

Here are 5 molecules together with their reported answers.
[
  {
    "MOLECULE": "COc1ccc2[nH]cc(CCNC(C)=O)c2c1",
    "CLASS": "False"
  },
  {
    "MOLECULE": "COc1cc(OC)c(-c2c(OC)cc(OC)cc2OC)c(OC)c1",
    "CLASS": "False"
  },
  {
    "MOLECULE": "CC(C)=CCC1=C(O)c2ccccc2C(=O)C1=O",
    "CLASS": "True"
  },
  {
    "MOLECULE": "N#C/C(=C\\c1ccc(O)cc1)C(=O)O",
    "CLASS": "False"
  },
  {
    "MOLECULE": "COc1cc(O)c(C(=O)O)c(O)c1",
    "CLASS": "False"
  }
]

input: Does C[N+]1(C)C2CC[C@H]1CC(OC(=O)C(O)c1ccccc1)C2 (stereo not given in full) have normalized growth strictly under 1?
output: False

input: Does CC1(C)C[C@@H]2C(=O)CC[C@H]3O[C@]3(C)CC[C@H]21 have normalized growth strictly under 1?
output: True
